Hello, the source for this data is PubChem BioAssay AID1159580, in case you need it.

experiment: chemical genetic growth profiling, strain panel (AID 1159580);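 also: tested at 20 µM; growth read once vehicle control cultures reached saturation at 30 °C; 1 = growth at the plate median or of vehicle wells; lower values mean less growth of the strain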; details: S. cerevisiae deletion strains, growth OD, locus YKL048C, strain ELM1
In all, about 5,500 compounds went through this assay and about 2,000 (36%) were called active. Another 18% or so got no clear call; they are omitted. Rule as the data show it: active = normalized growth mostly below about 0.91 (no sharp cut-off); inconclusive = no clear call, values can overlap the other calls; inactive = mostly above about 0.92. Some of the results follow.
// one of active, inactive, no free text

Worked examples follow.
Oc1c(Cl)cc(Cl)cc1/C=N\NC(=S)Nc1cc(C(F)(F)F)cc(C(F)(F)F)c1 : active
O=C1Nc2ccccc2/C1=C\c1cccc([N+](=O)[O-])c1 : inactive
O=C(NNc1ccc(F)cc1F)c1sccc1Cl : inactive

Okay, next one:
[in] Which outcome did this test record for the compound CCNC(=S)N/N=C\c1cc(Cl)cc(Cl)c1O ?
[out] inactive

* * *

assay: chemical genetic growth profiling, strain panel (AID 1159580); details: S. cerevisiae deletion strains, growth OD, locus YER015W, strain faa2, stronger effect = lower value
About 2,000 (36%) of roughly 5,500 compounds were called active. Another 18% or so got no clear call; they are omitted. This is one part of the list.
# normalized growth values compiled below
Provide a numeric answer; units are not to be included.

Use these answered entries as a reference point.
COc1ccc(-c2oc3cc(O[C@H]4O[C@H](CO)[C@@H](O)[C@H](O)[C@H]4O)c(OC)c(O)c3c(=O)c2OC)cc1O : 1.01
CCOC(=O)c1c(C)cc(OC)cc1O : 0.991
O=c1c(O)c(-c2ccc(O)c(O)c2)oc2c(O[C@@H]3O[C@H](CO)[C@H](O)[C@@H](O)[C@H]3O)c(O)cc(O)c12 : 1

[in] Read the entry COC(=O)c1c(C)cc(OC)cc1O and write its reported normalized growth.
[out] 0.98

[in] Read the entry COc1cc(OC)c2ccc(=O)oc2c1 and write its reported normalized growth.
[out] 0.973

[in] Read the entry CN(C)c1ccc2nc3ccc(=[N+](C)C)cc-3sc2c1 and write its reported normalized growth.
[out] 1.05

[in] Read the entry CC/C(=C(/CC)c1ccc(O)cc1)c1ccc(O)cc1 and write its reported normalized growth.
[out] 0.945

[in] Read the entry COc1c2ccoc2cc2oc(=O)ccc12 and write its reported normalized growth.
[out] 0.981

[in] Read the entry CCC(c1ccc(O)cc1)C(CC)c1ccc(O)cc1 (stereo unspecified) and write its reported normalized growth.
[out] 0.901

[in] Read the entry COC(=O)c1c(C)cc(O)cc1O and write its reported normalized growth.
[out] 1

[in] Read the entry O=c1cc(-c2ccc(O)cc2)oc2cc(O[C@@H]3O[C@H](CO)[C@@H](O)[C@H](O)[C@H]3O)cc(O)c12 and write its reported normalized growth.
[out] 0.993

* * *

test: chemical genetic growth profiling, strain panel (AID 1159580); conditions: S. cerevisiae deletion strains, growth OD, locus YDR159W, strain sac3, stronger effect = lower value
Among all 5,500 compounds or so, about 2,000 (36%) were called active. About 18% were inconclusive and are not listed. Some of the results follow.
VALUE_TYPE: normalized growth
Provide a numeric answer; units are not to be included.

[in] Read the entry CC(C)[N+](C)(CCC(C(N)=O)(c1ccccc1)c1ccccc1)C(C)C and write its reported normalized growth.
[out] 0.997

[in] Read the entry O=c1c(O)c(-c2ccc(O)c(O)c2)oc2c(O[C@@H]3O[C@H](CO)[C@H](O)[C@@H](O)[C@H]3O)c(O)cc(O)c12 and write its reported normalized growth.
[out] 0.997

[in] Read the entry COc1ccc(-c2oc3cc(O[C@H]4O[C@H](CO)[C@@H](O)[C@H](O)[C@H]4O)c(OC)c(O)c3c(=O)c2OC)cc1O and write its reported normalized growth.
[out] 1

[in] Read the entry O=c1c(O)c(-c2ccc(O)cc2O)oc2cc(O)cc(O)c12 and write its reported normalized growth.
[out] 0.985

* * *

assay: chemical genetic growth profiling, strain panel (AID 1159580); conditions: S. cerevisiae deletion strains, growth OD, locus YJL095W, strain BCK1 (second series)
The whole screen tested about 5,500 compounds, of which about 2,000 (36%) were called active. Not shown: some 18% with an inconclusive outcome. Cut-off read from the data, not from the text of the source: active = normalized growth mostly below about 0.91 (no sharp cut-off); inconclusive = no clear call, values can overlap the other calls; inactive = mostly above about 0.92. The list shows a part of the results. Where a SMILES comes first, the peptide text is derived from it.
// one of active, inactive, no free text

[in] Which outcome did this test record for the compound CCC(c1ccc(O)cc1)C(CC)c1ccc(O)cc1 (stereo unspecified) ?
[out] active

[in] Which outcome did this test record for the compound CN(C)c1ccc2nc3ccc(=[N+](C)C)cc-3sc2c1 ?
[out] inactive

[in] Which outcome did this test record for the compound COC(=O)[C@H](Cc1ccccc1)NC(=O)[C@@H](N)CC(=O)O (H-Asp-Phe-OMe) ?
[out] inactive

* * *

# normalized growth values compiled below
experiment: chemical genetic growth profiling, strain panel (AID 1159580); conditions: S. cerevisiae deletion strains, growth OD, locus YER155C, strain BEM2, stronger effect = lower value
Out of some 5,500 compounds screened, about 2,000 (36%) were called active. About 18% were inconclusive and are not listed. This is one part of the list.

O=C(Cc1cccs1)NC1C(=O)N2C(C(=O)[O-])=C(C[n+]3ccccc3)CSC12 (stereo not given) : 1 (inactive)
CN1C[C@H](C(=O)N[C@]2(C)O[C@@]3(O)[C@@H]4CCCN4C(=O)[C@H](Cc4ccccc4)N3C2=O)C[C@@H]2c3cccc4[nH]cc(c34)C[C@H]21 : 0.979 (inactive)
CC(=O)OCC1=C(C(=O)O)N2C(=O)[C@@H](NC(=O)Cc3cccs3)[C@H]2SC1 : 1 (inactive)
CCCCOc1cc(C(=O)NCCN(CC)CC)c2ccccc2n1 : 0.998 (inactive)

Next compound, normalized growth to be filled in.
[in] Read the entry CC(C)(C)NCC(O)c1cc(Cl)c(N)c(Cl)c1 (stereo not given) and write its reported normalized growth.
[out] 1.02 (inactive)

* * *

experiment: chemical genetic growth profiling, strain panel (AID 1159580);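 also: tested at 20 µM; growth read once vehicle control cultures reached saturation at 30 °C; 1 = growth at the plate median or of vehicle wells; lower values mean less growth of the strain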; conditions: S. cerevisiae deletion strains, growth OD, locus YDR101C, strain arx1, stronger effect = lower value
Hit rate of the full screen: of about 5,500 compounds, about 2,000 (36%) were called active. About 18% were inconclusive and are not listed. This is one part of the list.
Please assign class 0 whenever normalized growth is at or above 1, and class 1 whenever it is below.

Worked examples follow.
Oc1cc2c(cc1O)C1c3ccc(O)c(O)c3OCC1(O)C2 (stereo not given) : class 0
CC1(C)C(=O)C=C[C@@]2(C)C1C[C@@H](O)[C@]1(C)C2CC[C@@]2(C)[C@H](c3ccoc3)OC(=O)[C@H]3O[C@]321 (stereo not given in full) : class 1

Okay, next one:
[in] normalized growth strictly < 1 for this compound? Oc1ccc2c(c1)OCC1(O)Cc3cc(O)c(O)cc3C21 (stereo not given)
[out] class 0

* * *

experiment: chemical genetic growth profiling, strain panel (AID 1159580);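 also: tested at 20 µM; growth read once vehicle control cultures reached saturation at 30 °C; 1 = growth at the plate median or of vehicle wells; lower values mean less growth of the strain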; conditions: S. cerevisiae deletion strains, growth OD, locus YOR080W, strain dia2, stronger effect = lower value
Out of some 5,500 compounds screened, about 2,000 (36%) were called active. About 18% were inconclusive and are not listed. This is one part of the list. Where a SMILES comes first, the peptide text is derived from it.
# normalized growth values compiled below
Provide a numeric answer; units are not to be included.

Use these answered entries as a reference point.
COC(=O)[C@H](Cc1ccccc1)NC(=O)[C@@H](N)CC(=O)O (H-Asp-Phe-OMe) : 1.02
CCCCCC(=O)Cc1cc(O)cc(O)c1C(=O)Oc1cc(CC(=O)CCCCC)c(C(=O)O)c(OC)c1 : 0.938

Next molecule, normalized growth to be filled in.
[in] Read the entry CCCCCc1c2c(cc(O)c1C(=O)O)OC(=O)c1c(cc(OC)cc1C(=O)CCCC)O2 and write its reported normalized growth.
[out] 0.99

* * *

experiment: chemical genetic growth profiling, strain panel (AID 1159580);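 also: tested at 20 µM; growth read once vehicle control cultures reached saturation at 30 °C; 1 = growth at the plate median or of vehicle wells; lower values mean less growth of the strain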; conditions: S. cerevisiae deletion strains, growth OD, locus YMR058W, strain fet3, stronger effect = lower value
The campaign covered roughly 5,500 compounds. About 2,000 (36%) were called active. Inconclusive results (about 18%) are left out. Some of the results follow.
VALUE_TYPE: normalized growth

Use these answered entries as a reference point.
CCCCCC(=O)Cc1cc(O)cc(O)c1C(=O)Oc1cc(CC(=O)CCCCC)c(C(=O)O)c(OC)c1 : 0.883 (active)
NC(=O)CN1CCCC1=O : 0.988 (inactive)
CCCCCc1c2c(cc(O)c1C(=O)O)OC(=O)c1c(cc(OC)cc1C(=O)CCCC)O2 : 0.987 (inactive)
C[C@]12CCC3c4ccc(OS(=O)(=O)O)cc4CCC3C1CC[C@H]2O (some centres not stated) : 0.979 (inactive)
Oc1cc2c(cc1O)C1c3ccc(O)c(O)c3OCC1(O)C2 (configuration not stated) : 0.784 (active)

[in] Read the entry CC(=O)OCC1=C(C(=O)O)N2C(=O)[C@@H](NC(=O)Cc3cccs3)[C@H]2SC1 and write its reported normalized growth.
[out] 0.923 (inactive)

[in] Read the entry CC(C)(C)NCC(O)c1cc(Cl)c(N)c(Cl)c1 (configuration not stated) and write its reported normalized growth.
[out] 0.998 (inactive)
